Biological target: von Willebrand factor (VWF) (Homo sapiens, UniProt P04275 P04275:764-2813)
Test: filter; Bmax 59%; 2 mM CaCl2, 37 C
Details: tags: factor VIII free, Haematologic Technologies Inc; label: 5'-32P
reported property: Kd (nM)
State the answer as a number, implicitly in nM.

// Kd value for AAAAACGAACUGCCCUCGAUCGACGCACAGACGU (ssRNA, 2'-F C and U; 2'-OH A and G; 3' idT) [T77] : 8.8

Let us move to another entry and its Kd.
The binder listed as ACGAACUGCCCUCAGCUACUUUCAUGUUGCUGACGCACAGACGU (ssRNA, rAfCrGrArAfCfUrGfCfCfCfUfCrArGfCfUrAmCmUmUmUmCmAmUmGfUfUrGfCfUrGrAfCrGfCrAfCrArGrAfCrGfU-idT) [T25 vrt12] has a reported Kd of 7.1
